# study-system: Neurogenic locus notch homolog protein 2 (Homo sapiens) (UniProt Q04721)
# Sequence (Q04721 whole entry, looked up): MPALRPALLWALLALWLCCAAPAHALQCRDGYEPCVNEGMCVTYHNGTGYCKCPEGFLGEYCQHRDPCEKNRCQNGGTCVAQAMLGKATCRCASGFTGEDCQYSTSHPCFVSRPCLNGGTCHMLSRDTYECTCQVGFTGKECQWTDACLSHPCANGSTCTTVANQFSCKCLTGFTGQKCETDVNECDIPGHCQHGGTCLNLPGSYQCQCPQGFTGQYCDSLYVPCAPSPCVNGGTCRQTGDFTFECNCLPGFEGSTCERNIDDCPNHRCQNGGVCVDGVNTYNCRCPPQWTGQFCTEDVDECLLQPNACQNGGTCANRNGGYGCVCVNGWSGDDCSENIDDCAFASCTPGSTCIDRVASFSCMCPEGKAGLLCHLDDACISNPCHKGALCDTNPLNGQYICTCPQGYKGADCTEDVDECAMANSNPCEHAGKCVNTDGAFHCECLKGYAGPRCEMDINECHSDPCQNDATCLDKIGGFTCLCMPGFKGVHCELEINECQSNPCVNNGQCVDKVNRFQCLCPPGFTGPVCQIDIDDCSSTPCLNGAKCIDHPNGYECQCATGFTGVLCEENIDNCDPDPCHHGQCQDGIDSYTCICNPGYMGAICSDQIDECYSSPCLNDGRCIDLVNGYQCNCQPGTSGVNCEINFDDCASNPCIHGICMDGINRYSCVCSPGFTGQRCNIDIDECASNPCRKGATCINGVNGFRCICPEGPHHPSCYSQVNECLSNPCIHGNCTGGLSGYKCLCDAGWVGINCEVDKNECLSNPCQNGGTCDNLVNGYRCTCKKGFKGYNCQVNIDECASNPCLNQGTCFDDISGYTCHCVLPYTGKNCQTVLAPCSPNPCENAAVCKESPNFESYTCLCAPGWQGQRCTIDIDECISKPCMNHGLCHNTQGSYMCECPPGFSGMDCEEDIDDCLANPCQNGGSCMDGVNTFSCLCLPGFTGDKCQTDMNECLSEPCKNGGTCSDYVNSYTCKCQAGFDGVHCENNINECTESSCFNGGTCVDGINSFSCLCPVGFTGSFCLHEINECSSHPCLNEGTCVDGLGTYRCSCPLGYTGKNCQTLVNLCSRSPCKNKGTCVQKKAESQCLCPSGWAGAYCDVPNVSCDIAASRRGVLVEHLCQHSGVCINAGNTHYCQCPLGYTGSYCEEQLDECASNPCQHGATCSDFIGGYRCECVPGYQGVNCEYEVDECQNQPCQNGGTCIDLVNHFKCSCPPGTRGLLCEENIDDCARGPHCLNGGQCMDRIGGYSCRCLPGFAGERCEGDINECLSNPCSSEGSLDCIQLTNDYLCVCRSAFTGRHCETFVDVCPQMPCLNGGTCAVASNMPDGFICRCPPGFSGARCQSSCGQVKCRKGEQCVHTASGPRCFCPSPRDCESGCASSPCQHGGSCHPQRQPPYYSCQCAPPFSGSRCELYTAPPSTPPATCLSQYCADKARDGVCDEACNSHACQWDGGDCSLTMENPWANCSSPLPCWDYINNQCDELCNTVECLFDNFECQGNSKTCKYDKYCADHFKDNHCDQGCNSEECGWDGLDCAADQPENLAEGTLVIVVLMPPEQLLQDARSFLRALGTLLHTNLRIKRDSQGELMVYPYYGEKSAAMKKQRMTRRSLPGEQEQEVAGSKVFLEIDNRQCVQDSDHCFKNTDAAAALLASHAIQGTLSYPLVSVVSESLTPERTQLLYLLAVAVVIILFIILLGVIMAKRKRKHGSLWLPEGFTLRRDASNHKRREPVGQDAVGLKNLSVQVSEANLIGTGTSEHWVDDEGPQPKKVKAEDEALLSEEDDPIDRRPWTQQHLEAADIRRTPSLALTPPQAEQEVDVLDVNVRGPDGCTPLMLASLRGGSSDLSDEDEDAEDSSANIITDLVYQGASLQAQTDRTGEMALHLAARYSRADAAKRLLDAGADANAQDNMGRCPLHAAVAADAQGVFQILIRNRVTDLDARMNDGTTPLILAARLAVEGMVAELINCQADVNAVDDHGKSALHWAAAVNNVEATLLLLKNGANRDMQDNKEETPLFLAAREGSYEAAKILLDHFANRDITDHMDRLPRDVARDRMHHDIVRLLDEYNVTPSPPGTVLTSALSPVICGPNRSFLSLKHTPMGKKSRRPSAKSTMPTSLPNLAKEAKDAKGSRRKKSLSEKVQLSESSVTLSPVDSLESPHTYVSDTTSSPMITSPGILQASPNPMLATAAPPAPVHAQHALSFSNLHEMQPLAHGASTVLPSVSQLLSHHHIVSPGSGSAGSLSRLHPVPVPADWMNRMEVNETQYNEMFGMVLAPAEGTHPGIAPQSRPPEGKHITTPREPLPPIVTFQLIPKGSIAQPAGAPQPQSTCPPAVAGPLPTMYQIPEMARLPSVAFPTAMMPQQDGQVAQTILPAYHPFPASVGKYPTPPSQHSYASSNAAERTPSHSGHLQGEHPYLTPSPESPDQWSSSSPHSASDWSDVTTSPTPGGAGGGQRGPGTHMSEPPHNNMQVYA
# run-description: Notch2 binders on small-molecule microarrays, primary screen, biochemical, small-molecule microarray, 635 nm fluorescence, stem cell growth factors (AID 1073)
# experimental-setup: Notch2 binding, higher = more signal
endpoint-name: composite z-score

// solved cases for composite z-score follow
- COC(=O)[C@@]1(Cc2ccccc2N=[N+]=[N-])COC(c2ccc(OCCCO)cc2)=N1: 0.0164
- CN(C)CCCCNC(=O)[C@H]1C[C@H]2C(=O)N[C@@H](Cc3ccccc3)C(=O)N2[C@H]1c1ccc(O)cc1: 1.37
- O=C(CS)NCCCCCCNC(=O)[C@H]1C[C@H]2C(=O)N3CCC[C@H]3C(=O)N2[C@H]1c1cccc(OCCO)c1: 0.698
- COC(=O)[C@]1(Cc2ccccc2N=[N+]=[N-])N=C(c2ccc(OCCCO)cc2)O[C@@H]1c1ccccc1N=[N+]=[N-]: 0.374

Note composite z-score for the compound shown: CC(C)c1ccc(NN2C(C(O)c3c(F)cccc3Cl)C=CC3C(=O)N(c4ccccc4)C(=O)C32)cc1 (configuration not stated)
1.52

Please supply the value of reported composite z-score for the item CCOC(=O)C[C@H]1[C@H](OC(=O)c2ccc(-c3ccccc3)cc2)[C@@H](NC(=O)Cc2ccc(OC)cc2)c2cc(OCCCO)ccc2N1C(=O)c1ccc2ccccc2n1
0.76

In one line, give reported composite z-score of the entry C=CC[C@@]1(C(=O)N2CCOCC2)N=C(c2ccc(OCCCO)cc2)O[C@@H]1c1ccccc1N=[N+]=[N-] .
1.53
